Assay: Caco-2 permeability
Details: human
result type: Papp A→B (×10⁻⁶ cm/s)
// note: answer is a bare numeric in ×10⁻⁶ cm/s

// field: Papp A→B; key: N#Cc1c(-c2cccs2)no[n+]1[O-] [Analogue 29] ; value = 8.4

---

Target: TGR (Schistosoma mansoni)
Sequence (Q962Y6 1-598): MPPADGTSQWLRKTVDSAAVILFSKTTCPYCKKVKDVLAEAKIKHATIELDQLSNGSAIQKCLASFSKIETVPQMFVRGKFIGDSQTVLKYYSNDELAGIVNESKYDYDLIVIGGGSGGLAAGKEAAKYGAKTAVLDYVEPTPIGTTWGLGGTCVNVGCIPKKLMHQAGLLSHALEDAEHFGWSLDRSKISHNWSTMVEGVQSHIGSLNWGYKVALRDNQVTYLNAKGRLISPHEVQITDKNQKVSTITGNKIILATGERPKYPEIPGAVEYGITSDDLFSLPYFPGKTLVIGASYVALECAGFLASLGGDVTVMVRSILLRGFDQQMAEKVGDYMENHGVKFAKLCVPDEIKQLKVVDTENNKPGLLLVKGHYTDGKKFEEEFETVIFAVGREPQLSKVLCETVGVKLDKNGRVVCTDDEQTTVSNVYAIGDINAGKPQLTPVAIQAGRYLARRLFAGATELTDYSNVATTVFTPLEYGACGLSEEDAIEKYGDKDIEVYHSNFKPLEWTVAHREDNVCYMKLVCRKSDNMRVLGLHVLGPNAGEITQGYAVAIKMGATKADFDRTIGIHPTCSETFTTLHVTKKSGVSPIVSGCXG
Type: biochemical
Settings: with TGR; ABTS method, data in supporting information
result type: NO release / NO donating ability (in words)

compound	result
N#Cc1c(-c2cccs2)no[n+]1[O-]	good NO release profiles
N#Cc1c(-c2ccco2)no[n+]1[O-]	good NO release profiles

---

System: ex vivo worms in culture
Assay: Ex vivo parasite killing, visual examination of cultured worms
Set-up: species or system Schistosoma
Conditions: 10 μM compound, cultured worms, 24 hr
result type: Ex Vivo Parasite Killing 24 hr (%D)
Please reply with the bare figure in %D and do not write the unit itself.

// known answers, use as guide
compound	result
N#Cc1c(-c2ccc(-c3ccccc3)cc2)no[n+]1[O-]	20
N#Cc1c(-c2ccc(Br)cc2)no[n+]1[O-]	100
N#Cc1c(-c2cccc(Br)c2)no[n+]1[O-]	100

The measured Ex Vivo Parasite Killing 24 hr associated with N#Cc1c(-c2ccc(F)c(Br)c2)no[n+]1[O-] reads 50

Where these numbers come from: paper PMC2772170
